The values you see were collected from the NIST ThermoML archive (doi:10.1016/j.jct.2012.06.018).

# PROTOCOL_CONDITIONS: 313.15 K, Ring tensiometer
Quick reference for surface tension liquid-gas among some compounds
Report the value in mN/m with no unit label.

Here is how some compounds turned out for surface tension liquid-gas.
> print(dat)
                                   compound  unit   val
1  CCCC[n+]1ccccc1C.O=S(=O)([N-]S(=O)(=O)C(F)(F)F)C(F)(F)F  mN/m  35.5
2  CCCC[n+]1ccccc1.O=S(=O)([N-]S(=O)(=O)C(F)(F)F)C(F)(F)F [1-butylpyridinium bis[(trifluoromethyl)sulfonyl]imide]  mN/m  34.3
3  CCCCCC[n+]1ccccc1.O=S(=O)([N-]S(=O)(=O)C(F)(F)F)C(F)(F)F [1-hexylpyridinium bis(trifluromethylsulfonyl)imide]  mN/m    33
4  CCCC[n+]1cccc(C)c1.F[B-](F)(F)F [1-butyl-3-methylpyridinium tetrafluoroborate]  mN/m  45.3

// below: surface tension liquid-gas requested for another compound
Problem: I'd like to know its surface tension liquid-gas. The compound in question is CCCC[n+]1ccc(C)cc1.O=S(=O)([N-]S(=O)(=O)C(F)(F)F)C(F)(F)F
Result: 34.2
